Just for reference, patent US20110184068A1 is where these values come from.

TARGET OR TEST SYSTEM: N-type calcium channels (Homo sapiens, UniProt Q00975)
Construct: IMR32 preferentially express on the membrane surface N-type calcium channels; endogenous in cells
Sequence (Q00975 whole entry): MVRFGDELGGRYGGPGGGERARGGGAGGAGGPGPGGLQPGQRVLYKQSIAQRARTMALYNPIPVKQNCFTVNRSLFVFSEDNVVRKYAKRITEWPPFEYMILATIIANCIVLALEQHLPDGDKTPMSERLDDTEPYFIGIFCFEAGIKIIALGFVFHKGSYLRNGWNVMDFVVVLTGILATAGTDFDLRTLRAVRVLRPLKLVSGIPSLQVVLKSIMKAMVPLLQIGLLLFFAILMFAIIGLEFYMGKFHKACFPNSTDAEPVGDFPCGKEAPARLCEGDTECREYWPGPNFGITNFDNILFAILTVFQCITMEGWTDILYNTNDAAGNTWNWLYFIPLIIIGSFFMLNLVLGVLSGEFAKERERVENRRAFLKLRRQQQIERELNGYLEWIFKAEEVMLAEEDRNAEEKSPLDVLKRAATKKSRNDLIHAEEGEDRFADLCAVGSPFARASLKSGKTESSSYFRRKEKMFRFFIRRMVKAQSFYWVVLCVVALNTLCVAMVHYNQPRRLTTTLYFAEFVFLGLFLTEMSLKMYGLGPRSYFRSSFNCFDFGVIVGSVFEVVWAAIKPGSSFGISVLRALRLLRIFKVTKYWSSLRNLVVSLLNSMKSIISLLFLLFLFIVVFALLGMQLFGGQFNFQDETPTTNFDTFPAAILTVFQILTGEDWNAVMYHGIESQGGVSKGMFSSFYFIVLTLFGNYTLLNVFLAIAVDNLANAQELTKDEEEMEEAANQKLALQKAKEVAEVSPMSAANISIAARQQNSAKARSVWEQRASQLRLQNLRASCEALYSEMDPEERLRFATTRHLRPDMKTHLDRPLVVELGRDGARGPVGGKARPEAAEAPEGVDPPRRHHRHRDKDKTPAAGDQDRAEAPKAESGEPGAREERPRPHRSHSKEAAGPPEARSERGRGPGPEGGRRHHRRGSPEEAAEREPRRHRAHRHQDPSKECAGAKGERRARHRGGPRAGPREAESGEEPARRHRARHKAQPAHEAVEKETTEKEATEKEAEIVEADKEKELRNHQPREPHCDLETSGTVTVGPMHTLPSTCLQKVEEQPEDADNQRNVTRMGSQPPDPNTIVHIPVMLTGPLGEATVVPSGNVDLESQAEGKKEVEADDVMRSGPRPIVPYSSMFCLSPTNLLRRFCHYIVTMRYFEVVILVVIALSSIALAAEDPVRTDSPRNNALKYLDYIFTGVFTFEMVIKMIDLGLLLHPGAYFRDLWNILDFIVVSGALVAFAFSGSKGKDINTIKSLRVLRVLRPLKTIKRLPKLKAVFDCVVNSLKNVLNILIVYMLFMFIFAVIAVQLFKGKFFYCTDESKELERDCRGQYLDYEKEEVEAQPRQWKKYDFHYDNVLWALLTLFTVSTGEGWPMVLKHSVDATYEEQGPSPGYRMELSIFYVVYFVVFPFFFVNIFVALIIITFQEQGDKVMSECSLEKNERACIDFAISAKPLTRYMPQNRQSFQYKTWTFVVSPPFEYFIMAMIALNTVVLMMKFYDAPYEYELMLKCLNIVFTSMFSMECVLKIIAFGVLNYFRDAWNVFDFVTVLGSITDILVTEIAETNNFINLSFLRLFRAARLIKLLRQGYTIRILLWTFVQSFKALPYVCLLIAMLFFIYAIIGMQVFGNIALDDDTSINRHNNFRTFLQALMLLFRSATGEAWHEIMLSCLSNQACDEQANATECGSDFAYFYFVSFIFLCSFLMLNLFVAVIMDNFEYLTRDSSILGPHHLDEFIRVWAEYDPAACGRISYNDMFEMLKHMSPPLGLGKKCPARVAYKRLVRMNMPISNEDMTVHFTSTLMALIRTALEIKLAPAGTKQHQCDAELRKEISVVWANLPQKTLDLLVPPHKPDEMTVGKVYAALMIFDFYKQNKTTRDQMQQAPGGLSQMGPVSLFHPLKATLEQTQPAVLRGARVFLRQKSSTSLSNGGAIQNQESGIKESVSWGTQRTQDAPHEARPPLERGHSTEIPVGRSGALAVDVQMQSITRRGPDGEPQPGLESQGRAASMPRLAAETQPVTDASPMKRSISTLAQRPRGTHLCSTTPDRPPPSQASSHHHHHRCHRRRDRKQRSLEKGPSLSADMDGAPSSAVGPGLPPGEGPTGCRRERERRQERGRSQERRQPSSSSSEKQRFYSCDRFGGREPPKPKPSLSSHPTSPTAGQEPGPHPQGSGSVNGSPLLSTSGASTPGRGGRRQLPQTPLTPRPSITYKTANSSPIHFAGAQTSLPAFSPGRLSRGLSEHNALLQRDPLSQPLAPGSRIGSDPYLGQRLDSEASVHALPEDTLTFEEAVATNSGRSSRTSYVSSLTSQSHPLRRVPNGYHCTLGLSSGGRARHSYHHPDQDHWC
Sequence (P54284 whole entry partner): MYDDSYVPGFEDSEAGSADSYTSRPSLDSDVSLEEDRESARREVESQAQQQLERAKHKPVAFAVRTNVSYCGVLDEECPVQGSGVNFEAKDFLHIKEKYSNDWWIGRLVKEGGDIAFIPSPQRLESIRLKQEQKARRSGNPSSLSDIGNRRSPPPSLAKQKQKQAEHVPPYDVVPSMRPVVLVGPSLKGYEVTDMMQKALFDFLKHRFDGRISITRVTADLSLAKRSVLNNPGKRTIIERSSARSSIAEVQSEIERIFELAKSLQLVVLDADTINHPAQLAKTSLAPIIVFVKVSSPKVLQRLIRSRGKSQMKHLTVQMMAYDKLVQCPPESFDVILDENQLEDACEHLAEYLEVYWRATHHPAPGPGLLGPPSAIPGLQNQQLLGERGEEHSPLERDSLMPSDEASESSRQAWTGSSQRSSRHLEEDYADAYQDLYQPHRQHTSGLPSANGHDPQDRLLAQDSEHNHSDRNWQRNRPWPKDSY
Sequence (P54289 25-956 partner limits assumed): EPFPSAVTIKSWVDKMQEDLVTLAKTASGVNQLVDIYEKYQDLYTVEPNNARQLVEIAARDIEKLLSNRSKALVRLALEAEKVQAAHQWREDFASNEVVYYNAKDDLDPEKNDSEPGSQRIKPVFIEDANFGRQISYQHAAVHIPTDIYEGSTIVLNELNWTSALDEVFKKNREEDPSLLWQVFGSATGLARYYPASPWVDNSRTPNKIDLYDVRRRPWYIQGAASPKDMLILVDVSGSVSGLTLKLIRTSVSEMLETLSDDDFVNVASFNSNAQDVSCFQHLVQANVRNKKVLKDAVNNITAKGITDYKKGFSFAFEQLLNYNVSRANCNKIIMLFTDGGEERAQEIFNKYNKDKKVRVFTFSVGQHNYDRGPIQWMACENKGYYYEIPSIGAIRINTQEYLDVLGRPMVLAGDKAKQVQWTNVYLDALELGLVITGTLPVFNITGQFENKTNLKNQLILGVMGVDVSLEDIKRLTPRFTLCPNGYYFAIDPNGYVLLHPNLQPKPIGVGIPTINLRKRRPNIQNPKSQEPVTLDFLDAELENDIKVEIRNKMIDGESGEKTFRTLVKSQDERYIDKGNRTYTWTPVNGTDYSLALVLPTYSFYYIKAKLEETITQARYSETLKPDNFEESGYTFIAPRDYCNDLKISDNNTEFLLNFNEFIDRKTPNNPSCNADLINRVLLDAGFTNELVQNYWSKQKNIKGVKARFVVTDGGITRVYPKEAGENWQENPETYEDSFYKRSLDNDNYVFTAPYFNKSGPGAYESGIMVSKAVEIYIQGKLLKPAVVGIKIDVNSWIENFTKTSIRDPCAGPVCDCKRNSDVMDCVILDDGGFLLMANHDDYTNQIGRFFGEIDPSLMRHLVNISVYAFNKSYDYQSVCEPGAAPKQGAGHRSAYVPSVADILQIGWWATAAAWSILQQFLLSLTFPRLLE
Sequence (P54289 957-1103 partner limits assumed): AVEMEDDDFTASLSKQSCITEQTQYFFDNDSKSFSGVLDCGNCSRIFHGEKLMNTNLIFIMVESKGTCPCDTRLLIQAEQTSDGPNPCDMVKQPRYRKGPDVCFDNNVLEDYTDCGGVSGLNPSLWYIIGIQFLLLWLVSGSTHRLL
ASSAY: Calcium influx assay (fluorescence, differentiated IMR32 cells with nifedipine)
COND: 1 μM nifedipine, 100 mM KCl depolarization, read-out: Ca 2+ N-Type IC50
Method: Under differentiating conditions, IMR32 preferentially express on the membrane surface N-type calcium channels. The remaining L-type calcium channels were blocked using the selective L type blocker, nifedipine. In these experimental conditions, only N type channels can be detected. […] The fluorescence (485-535 nm) was measured before and after (30-40 sec) the automated injection of 100 mM KCl depolarizing solution using a Victor plate reader (Perkin Elmer). […]
pIC50: −log10 of the molar value.
Reported pIC50 by item:
REPORTED METRIC: pIC50

>>> experimental_result("CNC(=O)C(C)NCc1ccc(OCc2ccccc2Cl)cc1 (single isomer, unassigned; isomer 2) [2-[4-(2-chlorobenzyloxy)benzylamino]-N-methyl-propanamide S isomer]")
4.52
>>> experimental_result("CC(NCc1ccc(OCc2ccccc2F)cc1)C(N)=O (single isomer, unassigned; isomer 2) [2-[4-(2-fluorobenzyloxy)benzylamino]-propanamide S isomer]")
4.64
>>> experimental_result("CC(NCc1ccc(OCc2cccc(Cl)c2)cc1)C(N)=O (single isomer, unassigned; isomer 2) [2-[4-(3-chlorobenzyloxy)benzylamino]-propanamide S isomer]")
4.03
>>> experimental_result("CNC(=O)[C@@H](C)NCc1ccc(OCc2ccccc2Cl)cc1.CS(=O)(=O)O [2-[4-(2-chlorobenzyloxy)benzylamino]-N-methyl-propanamide R isomer, methanesulfonate]")
5.08
>>> experimental_result("CS(=O)(=O)O.C[C@@H](NCc1ccc(OCc2ccccc2F)cc1)C(N)=O [2-[4-(2-fluorobenzyloxy)benzylamino]-propanamide R isomer, methanesulfonate]")
4.53
>>> experimental_result("CS(=O)(=O)O.C[C@@H](NCc1ccc(OCc2cccc(Cl)c2)cc1)C(N)=O [2-[4-(3-chlorobenzyloxy)benzylamino]-propanamide R isomer, methanesulfonate]")
4.70

* * *

Reported pIC50 by item:
TARGET OR TEST SYSTEM: Na channel Nav 1.3 (Homo sapiens)
ASSAY: Electrophysiological assay, tonic block, two electrodes voltage clamp in Xenopus oocytes
COND: depolarized (-40 mV, half max current availability) condition, read-out: Nav 1.3 Dep. Curr IC50
Method: Electrophysiological Assay Experiments for the determination of the tonic block are carried out on isolated Xenopus oocytes expressing the Na channel Nav 1.3. Currents are recorded using the two electrodes voltage clamp (TEVC) technique The day after the preparation, the oocytes are injected (Drummond Nanoject) with 20 ng Nav1.3 cRNA and maintained in NDE. Starting from 48 h after the mRNA injection whole cell currents are recorded using a two-microelectrode voltage clamp automated workstation. […]
pIC50: −log10 of the molar value.
REPORTED METRIC: pIC50

>>> experimental_result("CC(NCc1ccc(OCc2cccc(Cl)c2)cc1)C(N)=O (single isomer, unassigned; isomer 2) [2-[4-(3-chlorobenzyloxy)benzylamino]-propanamide S isomer]")
4.10
>>> experimental_result("CNC(=O)[C@@H](C)NCc1ccc(OCc2ccccc2Cl)cc1.CS(=O)(=O)O [2-[4-(2-chlorobenzyloxy)benzylamino]-N-methyl-propanamide R isomer, methanesulfonate]")
4.42
>>> experimental_result("CNC(=O)C(C)NCc1ccc(OCc2ccccc2Cl)cc1 (single isomer, unassigned; isomer 2) [2-[4-(2-chlorobenzyloxy)benzylamino]-N-methyl-propanamide S isomer]")
3.68
>>> experimental_result("CS(=O)(=O)O.C[C@@H](NCc1ccc(OCc2ccccc2F)cc1)C(N)=O [2-[4-(2-fluorobenzyloxy)benzylamino]-propanamide R isomer, methanesulfonate]")
3.83
>>> experimental_result("CS(=O)(=O)O.C[C@@H](NCc1ccc(OCc2cccc(Cl)c2)cc1)C(N)=O [2-[4-(3-chlorobenzyloxy)benzylamino]-propanamide R isomer, methanesulfonate]")
4.41
>>> experimental_result("CC(NCc1ccc(OCc2ccccc2F)cc1)C(N)=O (single isomer, unassigned; isomer 2) [2-[4-(2-fluorobenzyloxy)benzylamino]-propanamide S isomer]")
3.69

* * *

TARGET OR TEST SYSTEM: MAO-B (Rattus norvegicus, UniProt P19643)
Construct: Membrane preparations (crude mitochondrial fraction); from tissue; host or cells: rat brain, crude mitochondrial fraction
Sequence (P19643 whole entry): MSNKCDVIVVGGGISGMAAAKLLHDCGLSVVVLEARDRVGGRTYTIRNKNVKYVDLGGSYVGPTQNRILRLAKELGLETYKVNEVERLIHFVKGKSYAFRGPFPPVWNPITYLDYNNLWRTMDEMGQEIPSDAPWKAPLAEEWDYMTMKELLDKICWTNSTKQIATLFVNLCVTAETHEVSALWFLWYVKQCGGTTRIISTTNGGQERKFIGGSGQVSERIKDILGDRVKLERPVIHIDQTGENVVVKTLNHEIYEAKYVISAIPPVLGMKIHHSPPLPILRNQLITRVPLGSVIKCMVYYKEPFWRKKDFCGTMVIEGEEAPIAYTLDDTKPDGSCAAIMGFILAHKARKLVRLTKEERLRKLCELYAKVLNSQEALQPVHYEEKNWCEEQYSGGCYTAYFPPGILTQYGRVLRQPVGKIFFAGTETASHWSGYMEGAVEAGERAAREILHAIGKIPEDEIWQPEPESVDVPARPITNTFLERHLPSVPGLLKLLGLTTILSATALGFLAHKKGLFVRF
ASSAY: In vitro MAO-B enzyme activity assay (radioenzymatic, 14C-phenylethylamine)
Type: biochemical
COND: rat brain crude mitochondrial fraction; 30 min preincubation; concentration inhibiting 90% enzyme activity
Reported IC90 by item:
REPORTED METRIC: IC90 (µM)

>>> experimental_result("CNC(=O)[C@@H](C)NCc1ccc(OCc2ccccc2Cl)cc1.CS(=O)(=O)O [2-[4-(2-chlorobenzyloxy)benzylamino]-N-methyl-propanamide R isomer, methanesulfonate]")
122
>>> experimental_result("CC(NCc1ccc(OCc2ccccc2F)cc1)C(N)=O (single isomer, unassigned; isomer 2) [2-[4-(2-fluorobenzyloxy)benzylamino]-propanamide S isomer]")
28.4
>>> experimental_result("CC(NCc1ccc(OCc2cccc(Cl)c2)cc1)C(N)=O (single isomer, unassigned; isomer 2) [2-[4-(3-chlorobenzyloxy)benzylamino]-propanamide S isomer]")
1.64
>>> experimental_result("CS(=O)(=O)O.C[C@@H](NCc1ccc(OCc2ccccc2F)cc1)C(N)=O [2-[4-(2-fluorobenzyloxy)benzylamino]-propanamide R isomer, methanesulfonate]")
2500
>>> experimental_result("CNC(=O)C(C)NCc1ccc(OCc2ccccc2Cl)cc1 (single isomer, unassigned; isomer 2) [2-[4-(2-chlorobenzyloxy)benzylamino]-N-methyl-propanamide S isomer]")
2.8
>>> experimental_result("CS(=O)(=O)O.C[C@@H](NCc1ccc(OCc2cccc(Cl)c2)cc1)C(N)=O [2-[4-(3-chlorobenzyloxy)benzylamino]-propanamide R isomer, methanesulfonate]")
32.3
